# EXPERIMENTAL_PROTOCOL: Cycloheximide Counterscreen for Small Molecule Inhibitors of Shiga Toxin; further: read at 38.3 µM for the half of the compounds with a filed dose; 0% is about no effect
# CONDITION_SET: cell reporter, cycloheximide protein synthesis inhibition counterscreen
In all, about 300,000 compounds went through this assay and about 37,000 (12%) were called active. No stated cut-off is given here; in the data, active means max response mostly above about 13% (no sharp cut-off); inactive means mostly below about 14%. Only a selection was taken, and actives are over-represented in it overall.
Output constraint: value belongs to TRUE for active, FALSE for inactive

[[record]]
compound = "CC1CCN(S(=O)(=O)c2ccc3c(c2)n(C)c(=O)n3C)CC1"
classification = "FALSE"

[[record]]
compound = "COc1ccc(S(=O)(=O)NCCc2c[nH]c3ccccc23)cc1OC"
classification = "FALSE"

[[record]]
compound = "CC1CCN(C(=O)CCc2nnc3ccc(NCc4ccco4)nn23)CC1"
classification = "FALSE"

[[record]]
compound = "Cc1c(CCOC(=O)CC23CC4CC(CC(C)(C4)C2)C3)sc[n+]1Cc1ccc([N+](=O)[O-])cc1"
classification = "FALSE"

[[record]]
compound = "Cc1ccc(C(=O)N/C(=C/c2cccs2)C(=O)NCC2CCCO2)cc1 (configuration not stated)"
classification = "FALSE"


Shifting focus to the compound that follows.
Req: For this compound, state the assay outcome: CCOCCCNC(=O)C(NC(=O)CNC(=O)c1ccccc1)c1ccc(OC)cc1 (configuration not stated)
Resp: FALSE

====

# EXPERIMENTAL_PROTOCOL: Cycloheximide Counterscreen for Small Molecule Inhibitors of Shiga Toxin; further: read at 38.3 µM for the half of the compounds with a filed dose; 0% is about no effect
# CONDITION_SET: cell reporter, cycloheximide protein synthesis inhibition counterscreen; active compounds read high
In all, about 300,000 compounds went through this assay and about 37,000 (12%) were called active. For the sample, actives were picked, then their nearest neighbours and some compounds at random.
READOUT_NAME: max response (%)
Answers are plain numbers, in %.

[[record]]
compound = "Cc1ccc2c(c1)NCC(C(=O)NC1CCC(C)CC1)O2 (configuration not stated)"
endpoint_value = 41.1

[[record]]
compound = "Cc1nnc(C)c2c(C)n(N)c(C)c12"
endpoint_value = -2.66

[[record]]
compound = "O=C(CN1CCN(c2ccc(Cl)cc2)CC1)N1CCCC1"
endpoint_value = 6.76

[[record]]
compound = "C=C(C)C1CC=C(C)/C(=N\\NC(=O)CNc2ccccc2OC)C1 (configuration not stated)"
endpoint_value = -1.85

[[record]]
compound = "COc1ccc(-c2cc(C(=O)N(C)Cc3ccccc3)c3ccccc3n2)cc1"
endpoint_value = 10.1


// for each compound in input: emit max response
1. O=C(CC1NCCNC1=O)Nc1cc(Cl)cc(Cl)c1 (configuration not stated)
2. CCCCCCC(O)(CCN1CCCCC1)c1ccccc1 (configuration not stated)
3. Cc1nn(-c2ccccc2)c(Cl)c1/C=N/NC(=O)c1nn(C)cc1[N+](=O)[O-]
4. O=c1c2ccccc2nnn1CSc1nc2sc3c(c2c(=O)n1CC1CCCO1)CCC3 (configuration not stated)
5. Cc1cc2c(c(=O)n1Cc1ccccc1)C1O[C@](CCCCN3C(=O)c4ccccc4C3=O)(Cc3ccccc31)O2

Resp:
1: -5.54; 2: -3.74; 3: 30.2; 4: -2.17; 5: -2.41

// for each compound in input: emit max response
1. O=C(CN1CCN(c2ccccn2)CC1)Nc1ccc(Br)cc1
2. O=C(Nc1cc(S(=O)(=O)N2CCOCC2)ccc1Cl)c1cc(=O)c2ccccc2o1
3. CCC(C)C(NC(=O)C1CCC(=O)N1C(=O)OCc1ccccc1)C(=O)NC(C(=O)N1CCCC1C(N)=O)C(C)CC (configuration not stated)
4. O=C(NC1C2CC3CC(C2)CC1C3)c1ccc(N2CCNCC2)c([N+](=O)[O-])c1 (configuration not stated)
5. Cc1ccc(-c2cc(C(=O)Nc3nn[nH]n3)c3ccccc3n2)c(C)c1
6. CCC(C(=O)NC1CCCCC1)N(C(=O)c1snc(C(N)=O)c1N)c1ccc(OC)cc1OC (configuration not stated)
7. O=C(Cc1ccc(Cl)cc1)NCc1nc(-c2ccccc2)no1
8. CCNC(=O)NC(=O)C(C)OC(=O)c1cc(S(=O)(=O)N2CCCCCC2)ccc1OC (configuration not stated)

Resp:
1: -4.91; 2: 2.68; 3: -2.75; 4: -2.96; 5: -3.28; 6: -5.48; 7: 16.7; 8: 15.1

// for each compound in input: emit max response
1. Cc1nc2ccc(NC(=O)C(F)(F)F)cc2o1
2. O=C(Cn1c(N2CCN(C/C=C/c3ccccc3)CC2)nc2ccccc21)c1ccccc1
3. O=C(O)CCCCCCCCc1cn(CN2C(=O)c3ccccc3C2=O)nn1
4. Cc1c(CCO)sc[n+]1CC(=O)OC12CC3CC(CC(C3)C1)C2
5. NC(=S)Nc1c(Cl)cccc1Cl
6. C=CCNC(=S)/N=c1/ccccn1Cc1ccccc1

Resp:
[1.37, 8.47, 1.15, -2.92, 4.66, 1.08]

Value source: PubChem BioAssay AID2314
